Measured pIC50 by item
test system: BJ; experiment: Cytostatic activity against human BJ cells after 72 hrs by MTT assay; format: ADME, cell-based
pIC50: −log10 of the molar value.
readoutKind: pIC50

In [3]: df
Out[3]:
                                 smilesentry  limitqualifier  numericvalue
 0  CN(C)c1ncnc2c1c(-c1cccs1)cn2[C@@H]1O[C@H](CO)[C@@H](O)[C@H]1O               <          4.00
 1  C#Cc1cn([C@@H]2O[C@H](CO)[C@@H](O)[C@H]2O)c2ncnc(C)c12               =          7.30
 2  Cc1ncnc2c1c(-c1ccsc1)cn2[C@@H]1O[C@H](CO)[C@@H](O)[C@H]1O               =          4.01
 3  CSc1ncnc2c1c(-c1cccs1)cn2[C@@H]1O[C@H](CO)[C@@H](O)[C@H]1O               =          4.01
 4  COc1nc(N)nc2c1c(-c1cc3ccccc3o1)cn2[C@@H]1O[C@H](CO)[C@@H](O)[C@H]1O               =          4.59
 5  COc1ncnc2c1c(-c1ccsc1)cn2[C@@H]1O[C@H](CO)[C@@H](O)[C@H]1O               =          4.19
 6  CNc1ncnc2c1c(I)cn2[C@@H]1O[C@H](CO)[C@@H](O)[C@H]1O               <          4.00
 7  Nc1ncnc2c1c(-c1ccco1)cn2[C@@H]1O[C@H](CO)[C@@H](O)[C@H]1O               =          4.74
 8  COc1nc(N)nc2c1c(-c1ccccc1)cn2[C@@H]1O[C@H](CO)[C@@H](O)[C@H]1O               <          4.00
 9  Cc1ncnc2c1c(-c1cc3ccccc3o1)cn2[C@@H]1O[C@H](CO)[C@@H](O)[C@H]1O               =          4.03
10  Cc1nc(N)c2c(-c3ccccc3)cn([C@@H]3O[C@H](CO)[C@@H](O)[C@H]3O)c2n1               <          4.00
11  O=c1[nH]cnc2c1c(-c1ccco1)cn2[C@@H]1O[C@H](CO)[C@@H](O)[C@H]1O               <          4.00
12  CSc1ncnc2c1c(-c1ccccc1)cn2[C@@H]1O[C@H](CO)[C@@H](O)[C@H]1O               <          4.00
13  Cc1ncnc2c1c(I)cn2[C@@H]1O[C@H](CO)[C@@H](O)[C@H]1O               <          4.00
14  C#Cc1cn([C@@H]2O[C@H](CO)[C@@H](O)[C@H]2O)c2ncnc(N(C)C)c12               =          6.39
15  CNc1ncnc2c1c(-c1ccsc1)cn2[C@@H]1O[C@H](CO)[C@@H](O)[C@H]1O               <          4.00
16  CSc1ncnc2c1c(I)cn2[C@@H]1O[C@H](CO)[C@@H](O)[C@H]1O               =          4.06
17  CSc1ncnc2c1c(-c1ccoc1)cn2[C@@H]1O[C@H](CO)[C@@H](O)[C@H]1O               =          4.01
18  O=c1[nH]cnc2c1c(-c1cccs1)cn2[C@@H]1O[C@H](CO)[C@@H](O)[C@H]1O               <          4.00

All figures here come from ChEMBL document CHEMBL3124843.
